The measurements presented in this section are drawn from ChEMBL document CHEMBL4689842.

Tested on: U2OS
assay.overview: Multiplex assay against U2OS
Format: toxicity, cell-based
condition.label: human, 24 h, 10 µM, compound concentration 10 uM, replicate 1
Consider the following compounds; for each one, report its Population Mitochondria Different-Phenotype (%).
The reply should consist of the numeric value with the unit placed after it.

## Input Bench note: what Population Mitochondria Different-Phenotype (%) did Cc1cn(-c2cc(NC(=O)c3ccc4c(c3)CN(c3cncnc3)C[C@@H]4C)cc(C(F)(F)F)c2)cn1 show?
## Output 14%

## Input // next record Cl.Cl.NC1(c2ccc(-c3nc4ccn5c(=O)[nH]nc5c4cc3-c3ccccc3)cc2)CCC1
## Output 68%

## Input // next record CCCn1c(=O)c2[nH]c(C34CC5CC(CC3C5)C4)nc2n(CCC)c1=O [ROLOFYLLINE]
## Output 84%

## Input // next record COc1cc2c(NC3CCN(C(C)C)CC3)nc(N3CCC(F)(F)CC3)nc2cc1OCCCN1CCCC1
## Output 98%

## Input // next record CC(C)(C)c1cnc(CSc2cnc(NC(=O)C3CCNCC3)s2)o1 [BMS-387032]
## Output 43%

## Input // next record Cc1nc(Cc2cccc(C(F)(F)F)c2)sc1-c1ccc(C(N)=O)nc1 [TP-024n]
## Output 23%

## Input // next record CCC(=O)O[C@]1(C(=O)SCF)[C@H](C)C[C@H]2[C@@H]3C[C@H](F)C4=CC(=O)C=C[C@]4(C)[C@@]3(F)[C@@H](O)C[C@@]21C [FLUTICASONE PROPIONATE]
## Output 24%

## Input // next record CN(C)CCOc1ccc(-c2nc(-c3ccncc3)c(-c3ccc4c(c3)CC/C4=N\O)[nH]2)cc1 [SB590885]
## Output 21%

====

Test system: Fibroblast
assay.overview: Multiplex assay against human fibroblast
Assay type: toxicity, cell-based
condition.label: 12 h, 1 µM, compound concentration 1 uM, replicate 2
Kind request: treat 10% as inclusive, so Population Mitochondria Different-Phenotype (%) at 10% or higher is TRUE, anything lower is FALSE.

## Input Given CC(=O)c1cc(-c2cc(C(=O)NC3CC3)ccc2C)c2ncccn12 , state whether its Population Mitochondria Different-Phenotype (%) is at least 10%.
## Output FALSE

## Input // next record COc1cc(N2CCC(N(C)C)CC2)ccc1Nc1ncc(Cl)c(Nc2ccccc2P(C)(C)=O)n1
## Output FALSE

## Input // next record CC(C)N1CCC(C)(C)c2cc(C#Cc3ccc(C(=O)O)cc3)ccc21
## Output TRUE

## Input // next record Cl.Cl.NC1(c2ccc(-c3nc4ccn5c(=O)[nH]nc5c4cc3-c3ccccc3)cc2)CCC1
## Output FALSE

## Input // next record CNc1oc(-c2cccc3ccccc23)nc1C#N
## Output TRUE

## Input // next record Cc1cn(-c2cc(NC(=O)c3ccc4c(c3)CN(c3cncnc3)C[C@@H]4C)cc(C(F)(F)F)c2)cn1
## Output FALSE

## Input // next record COc1cc2c(NC3CCN(C(C)C)CC3)nc(N3CCC(F)(F)CC3)nc2cc1OCCCN1CCCC1
## Output TRUE

## Input // next record CN(C)CCOc1ccc(-c2nc(-c3ccncc3)c(-c3ccc4c(c3)CC/C4=N\O)[nH]2)cc1 [SB590885]
## Output FALSE

====

System: U2OS
assay.overview: Incucyte cell viability with U2OS; note: filed as whole numbers so only -1 and 0 and 1 occur
Type: toxicity, cell-based
condition.label: human, 18 h, 10 µM, compound concentration 10 uM, replicate number 1, timepoint 18 hours
experimental.endpoint: Growth Rate

## Input Bench note: what Growth Rate did CCC(=O)O[C@]1(C(=O)SCF)[C@H](C)C[C@H]2[C@@H]3C[C@H](F)C4=CC(=O)C=C[C@]4(C)[C@@]3(F)[C@@H](O)C[C@@]21C [FLUTICASONE PROPIONATE] show?
## Output 1

## Input // next record Cl.Cl.Nc1ncnc2c1c(-c1cccc(OCc3ccccc3)c1)cn2[C@H]1C[C@@H](CN2CCC2)C1
## Output 0

## Input // next record CN(C)CCCn1cc(C2=C(c3c[nH]c4ccccc34)C(=O)NC2=O)c2ccccc21
## Output 0

## Input // next record CCN1CCN(Cc2ccc(NC(=O)c3ccc(C)c(Oc4ccnc5[nH]ccc45)c3)cc2C(F)(F)F)CC1.Cl.Cl.Cl.O
## Output 0

## Input // next record Nc1ccc(C(=O)Nc2cccc(-c3nc(N4CCOCC4)c4oc5ncccc5c4n3)c2)cn1
## Output 0

## Input // next record N#Cc1ccccc1OCC(O)CNCCNC(=O)Nc1ccccc1 (stereo unspecified)
## Output 0

## Input // next record CCOc1cc(N2CCC(O)CC2)ccc1Nc1ncc2c(n1)N(C1CCCC1)CCC(=O)N2C
## Output 0

## Input // next record FC(F)c1nc2ccccc2n1-c1nc(N2CCOCC2)nc(N2CCOCC2)n1
## Output 0

## Input // next record CCC(=O)N[C@@H]1CC[C@H](C(=O)N(C)c2ccc(-c3nc4ccccc4o3)cc2)C1
## Output 0

## Input // next record COc1cccc(CNC(=O)c2nc3scc(CN(C)Cc4ccccc4)c3c(=O)[nH]2)c1 [T-26f]
## Output 1

## Input // next record COc1cc(N2CCC(N(C)C)CC2)ccc1Nc1ncc(Cl)c(Nc2ccccc2P(C)(C)=O)n1
## Output 0

====

Test system: U2OS
assay.overview: Multiplex assay against U2OS
Format: toxicity, cell-based
condition.label: human, 24 h, 10 µM, compound concentration 10 uM, replicate 2
Kind request: treat 7% as inclusive, so Population Hoechst High Intensity Objects (%) at 7% or higher is Condition met, anything lower is Condition not met.

## Input Given Cl.Cl.Nc1ncnc2c1c(-c1cccc(OCc3ccccc3)c1)cn2[C@H]1C[C@@H](CN2CCC2)C1 , state whether its Population Hoechst High Intensity Objects (%) is at least 7%.
## Output Condition met

## Input // next record CC(C)N1CCC(C)(C)c2cc(C#Cc3ccc(C(=O)O)cc3)ccc21
## Output Condition met

## Input // next record Cc1cn(-c2cc(NC(=O)c3ccc4c(c3)CN(c3cncnc3)C[C@@H]4C)cc(C(F)(F)F)c2)cn1
## Output Condition not met

## Input // next record CNC(=O)c1cc(Oc2ccc(NC(=O)Nc3cc(C(C)(C)C)nn3-c3ccc4ncccc4c3)c(F)c2)ccn1 [REBASTINIB]
## Output Condition met

## Input // next record CCC(=O)O[C@]1(C(=O)SCF)[C@H](C)C[C@H]2[C@@H]3C[C@H](F)C4=CC(=O)C=C[C@]4(C)[C@@]3(F)[C@@H](O)C[C@@]21C [FLUTICASONE PROPIONATE]
## Output Condition met

## Input // next record COc1ccc(NS(=O)(=O)c2sc3ccc(Cl)cc3c2C)cc1N1CCNCC1.Cl
## Output Condition not met

## Input // next record CC(C)(C)c1cnc(CSc2cnc(NC(=O)C3CCNCC3)s2)o1 [BMS-387032]
## Output Condition met

## Input // next record CCn1c(-c2nonc2N)nc2cnc(Oc3cccc(NC(=O)c4ccc(OCCN5CCOCC5)cc4)c3)cc21 [GSK-269962A]
## Output Condition not met

## Input // next record Nc1nc2c(c(N3CCNCC3)n1)CCC1=C2[C@@H]2CCCC[C@@H]2O1
## Output Condition not met

## Input // next record c1ccc2oc(-c3csc(C4CCN(Cc5nc6ncccc6[nH]5)CC4)n3)cc2c1
## Output Condition met

====

System: Fibroblast
assay.overview: Multiplex assay against human fibroblast
Type: toxicity, cell-based
condition.label: 12 h, 1 µM, compound concentration 1 uM, replicate 1
experimental.endpoint: Population Pyknosed Nuclei (%)
Kindly answer with a numeric value in %, unit omitted.

## Input Bench note: what Population Pyknosed Nuclei (%) did CNc1oc(-c2cccc3ccccc23)nc1C#N show?
## Output 10

## Input // next record CC(C)Oc1ccc(C(=O)N[C@H](CNC(=O)CN(C)C)Cc2ccc(-c3cn4cccc([C@H](C)O)c4n3)cc2)cc1Cl [GSK-923295A]
## Output 18

## Input // next record Nc1nc2c(c(N3CCNCC3)n1)CCC1=C2[C@@H]2CCCC[C@@H]2O1
## Output 20

## Input // next record CCc1cc2c(cc1CC)CC(NC[C@H](O)c1ccc(O)c3[nH]c(=O)ccc13)C2
## Output 23

====

Consider the following compounds; for each one, report its Population Pyknosed Nuclei (%).
Tested on: U2OS
assay.overview: Multiplex assay against U2OS
Assay type: toxicity, cell-based
condition.label: human, 12 h, 1 µM, compound concentration 1 uM, replicate 1
Kindly answer with a numeric value in %, unit omitted.

## Input For U2OS, provide Population Pyknosed Nuclei (%) of CCCn1c(=O)c2[nH]c(C34CC5CC(CC3C5)C4)nc2n(CCC)c1=O [ROLOFYLLINE] please.
## Output 8

## Input // next record CC(C)N1CCC(C)(C)c2cc(C#Cc3ccc(C(=O)O)cc3)ccc21
## Output 9

## Input // next record CC(=O)c1cc(-c2cc(C(=O)NC3CC3)ccc2C)c2ncccn12
## Output 8

## Input // next record c1ccc2oc(-c3csc(C4CCN(Cc5nc6ncccc6[nH]5)CC4)n3)cc2c1
## Output 6
